system: HT 29 (Colon adenocarcinoma); test: In vitro cytotoxicity, microculture tetrazolium (MTT) assay, HT29; assay type: cell-based, Human; conditions: Homo sapiens, HT-29, 48 h with compound, further 48 h, Table 1
pIC50: −log10 of the molar value. Counter-ions that a name gives are not always drawn.
Below, each of the molecules is paired with its reported pIC50 value.

# count of solved cases: 3
In plain terms, CCCC1OC(C(=O)NCCCN(C)C)=CC2=C1C(=O)c1ccccc1C2=O (stereo not drawn) has a documented pIC50 of 5.92 to 6.41

// CC(=O)C1CC2=C(CO1)C(=O)c1ccccc1C2=O (stereo not drawn) : pIC50 value = < 4.00

The recorded pIC50 for entry COC1OC(C(=O)NCCN2CCCC2)=CC2=C1C(=O)c1ccccc1C2=O (stereo not drawn) [BCH2839, hydrochloride salt] equals 6.31 to 6.76

Others:
# pIC50 (molecule: CO[C@H]1C[C@H](O[C@H]2O[C@H](C(C)=O)CC3=C2C(=O)c2ccccc2C3=O)O[C@@H](C)[C@H]1OS(C)(=O)=O ) is 6.27 to 8.22

Memo: CC(=O)O[C@@H]1[C@H](C)O[C@@H](O[C@@H]2O[C@@H](C(C)=O)CC3=C2C(=O)c2ccccc2C3=O)C(Br)[C@@H]1OC(C)=O (stereo partly drawn) , reported pIC50: 5.77 to 6.52

Given item CC(=O)[C@@H]1CC2=C(C(=O)c3ccccc3C2=O)[C@@H](O[C@H]2C[C@H](NC(=O)C(F)(F)F)[C@H](O)[C@H](C)O2)O1 , the value recorded as its pIC50 is 7.79 to 8.64

----------
Examples of molecules with documented IC50 follow.
system: T47D (Ductal carcinoma of breast); assay: In vitro cytotoxicity, microculture tetrazolium (MTT) assay, T47D; type: cell-based, Human; details: Homo sapiens, 48 h with compound, further 48 h, Table 1
Output spec: scalar in µM, unitless text.

IC50 measured on COC(=O)[C@]1(C)CC2=C(C(=O)c3ccccc3C2=O)[C@H](O[C@H]2C[C@H](NC(=O)C(F)(F)F)[C@H](O)[C@H](C)O2)O1 = 7.4

Pending molecule:
Sample COC(=O)C1=CC2=C(C(=O)c3ccccc3C2=O)C(OC)O1 (centres unmarked) ; IC50 observed: 9.59

----------
compounds and their reported IC50
system: SKOV3 (Ovarian adenocarcinoma); assay: In vitro cytotoxicity, microculture tetrazolium (MTT) assay, SKOV3; assay type: cell-based, Human; conditions: Homo sapiens, SK-OV-3; SKOV3 ovarian adenocarcinoma; 48 h with compound, further 48 h, MTT; Table 1
Where a name gives a salt, the structure may show the parent alone.

Worked cases, IC50 given:
The compound identified as COC1OC(C(=O)NCCN2CCCC2)=CC2=C1C(=O)c1ccccc1C2=O (stereo not shown) [BCH2839, hydrochloride salt] registered its IC50 at 36.5 to 46.1 nM

IC50 measured on CO[C@H]1C[C@H](O[C@@H]2O[C@@H](C(C)=O)CC3=C2C(=O)c2ccccc2C3=O)O[C@@H](C)[C@H]1OS(C)(=O)=O = 64.1 to 113 nM

Short answer for CC(C)[C@H]1CC2=C(C(=O)c3ccccc3C2=O)[C@H](O[C@H]2C[C@H](NC(=O)C(F)(F)F)[C@H](O)[C@H](C)O2)O1 : IC50 was 5400 to 7010 nM

Continuing:
IC50 reported for this compound CC(=O)[C@@H]1CC2=C(C(=O)c3ccccc3C2=O)[C@@H](O[C@H]2C[C@H](NC(=O)C(F)(F)F)[C@H](O)[C@H](C)O2)S1 : 590 to 5090 nM

----------
system: T47D (Ductal carcinoma of breast); assay: In vitro cytotoxicity, microculture tetrazolium (MTT) assay, T47D; assay type: cell-based, Human; conditions: Homo sapiens, 48 h with compound, further 48 h, Table 1
Counter-ions that a name gives are not always drawn.
experimentalReadout: IC50

Past entries and their recorded results:
COC1OC(C(=O)NCCCN(C)C)=CC2=C1C(=O)c1ccccc1C2=O (stereo not drawn) [BCH2051, hydrochloride monohydrate] tested on T47D (Ductal carcinoma of breast) gave IC50: 41.9 to 68.5 nM

Item CC(=O)[C@@H]1CC2=C(C(=O)c3ccccc3C2=O)[C@@H](O[C@H]2C[C@H](NC(=O)C(F)(F)F)[C@H](O)[C@H](C)O2)S1 ; assay system T47D (Ductal carcinoma of breast); IC50 reported as 2200 to 2290 nM

Further cases:
# COC1OC(C(=O)NCCN2CCCC2)=CC2=C1C(=O)c1ccccc1C2=O (stereo not drawn) [BCH2839, hydrochloride salt] with T47D (Ductal carcinoma of breast): IC50 is 58.1 to 291 nM
